Molecular target: Discoidin domain-containing receptor 2 (Homo sapiens)
Experiment: Inhibition of DDR2 (unknown origin) assessed as remaining activity at 1 uM using fluorescein-poly GAT as substrate in presence of ATP by TR-FRET assay relative to control
property-measured: Activity (%)

The following compounds have reported results that may help.
                                 mol_smiles  property_measured  observed_result
0  COc1ccc2c(c1)c(CNC(=O)Nc1ccccc1Cl)cn2CC(=O)N1CCCCC1           Activity             64.3
1  COc1ccc2c(c1)c(CNC(=O)Nc1ccc(C(F)(F)F)cc1)cn2CC(=O)N1CCOCC1           Activity             82.2
2  O=C(NCc1cn(CC(=O)N2CCCC2)c2ccc(F)cc12)Nc1ccc(C(F)(F)F)cc1           Activity             81.1
3  CN1CCN(C(=O)Cn2cc(CNC(=O)Nc3ccc(C(F)(F)F)cc3)c3cc(F)ccc32)CC1           Activity             74.2
4  O=C(NCc1cn(CC(=O)N2CCCC2)c2ccc(F)cc12)Nc1ccc(F)cc1F           Activity             32.5

1: COc1ccc(NC(=O)NCc2cn(CC(=O)N3CCCC3)c3ccc(F)cc23)cc1
2: O=C(NCc1cn(CC(=O)N2CCCCC2)c2ccc(F)cc12)Nc1ccc(F)cc1F
Hi there! Just curious which has the higher Activity between 1 and 2 . Return value: the label identifying the chosen record.
1
(1: 86.3%, 2: 41.3%)
